measured on: human Lys-plasmin (Homo sapiens, UniProt P00747)
Construct: purchased Haematologic Technologies (Essex Junction, VT, USA)
Sequence (P00747 581-810 limits assumed): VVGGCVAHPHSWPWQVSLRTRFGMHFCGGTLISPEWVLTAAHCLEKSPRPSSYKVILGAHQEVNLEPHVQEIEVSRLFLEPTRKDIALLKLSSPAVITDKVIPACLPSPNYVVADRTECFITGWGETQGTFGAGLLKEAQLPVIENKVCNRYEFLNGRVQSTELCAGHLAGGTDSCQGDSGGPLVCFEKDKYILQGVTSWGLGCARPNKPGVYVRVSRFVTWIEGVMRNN
Sequence (P00747 97-580 partner limits assumed): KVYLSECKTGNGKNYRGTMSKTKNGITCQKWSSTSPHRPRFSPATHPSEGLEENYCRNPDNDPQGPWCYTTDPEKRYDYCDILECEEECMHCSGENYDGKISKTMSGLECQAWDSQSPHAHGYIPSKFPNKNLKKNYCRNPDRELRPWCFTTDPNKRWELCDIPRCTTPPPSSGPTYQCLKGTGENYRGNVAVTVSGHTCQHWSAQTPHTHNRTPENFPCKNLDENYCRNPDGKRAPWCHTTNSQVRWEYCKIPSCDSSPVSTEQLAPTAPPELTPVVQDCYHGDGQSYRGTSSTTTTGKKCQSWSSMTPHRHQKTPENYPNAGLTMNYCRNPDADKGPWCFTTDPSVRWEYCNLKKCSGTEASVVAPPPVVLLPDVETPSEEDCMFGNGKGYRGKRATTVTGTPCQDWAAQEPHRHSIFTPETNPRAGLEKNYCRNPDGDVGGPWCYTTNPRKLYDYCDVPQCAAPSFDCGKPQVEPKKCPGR
test protocol: Direct inhibition of human Lys-plasmin, chromogenic substrate (Spectrozyme PL) hydrolysis assay
Assay type: biochemical
study conditions: logistic fit, pH 7.4, 37 °C
Collected HS (Hill slope) values appear next to each entry.
parameter: HS (Hill slope)

INSERT INTO measurements (molecule, measured_on, data_value) VALUES
  ('O=c1c(OS(=O)(=O)O)c(-c2ccc(OS(=O)(=O)O)c(OS(=O)(=O)O)c2)oc2cc(OS(=O)(=O)O)cc(OCc3cn(CCCCCCCn4c(-c5ccc(OS(=O)(=O)O)cc5)nc5ccccc5c4=O)nn3)c12 [compound 31]', 'human Lys-plasmin (Homo sapiens, UniProt P00747)', 3.2),
  ('O=c1c(OS(=O)(=O)O)c(-c2ccc(OS(=O)(=O)O)c(OS(=O)(=O)O)c2)oc2cc(OS(=O)(=O)O)cc(OCc3cn(CCCCCCCCn4c(-c5ccc(OS(=O)(=O)O)cc5)nc5ccccc5c4=O)nn3)c12 [compound 32]', 'human Lys-plasmin (Homo sapiens, UniProt P00747)', 2.3),
  ('O=c1c(OS(=O)(=O)O)c(-c2ccc(OS(=O)(=O)O)c(OS(=O)(=O)O)c2)oc2cc(OS(=O)(=O)O)cc(OCCCCCOc3cc(OS(=O)(=O)O)cc4oc(-c5ccc(OS(=O)(=O)O)c(OS(=O)(=O)O)c5)c(OS(=O)(=O)O)c(=O)c34)c12 [compound 53]', 'human Lys-plasmin (Homo sapiens, UniProt P00747)', 0.6),
  ('O=c1c2ccccc2nc(-c2ccc(OS(=O)(=O)O)cc2)n1Cc1cn(CCn2cc(Cn3c(-c4ccc(OS(=O)(=O)O)cc4)nc4ccccc4c3=O)nn2)nn1 [compound 41]', 'human Lys-plasmin (Homo sapiens, UniProt P00747)', 4.0);

* * *

measured on: human Lys-plasmin (Homo sapiens, UniProt P00747)
Construct: purchased Haematologic Technologies (Essex Junction, VT, USA)
test protocol: Direct inhibition of human Lys-plasmin, chromogenic substrate (Spectrozyme PL) hydrolysis assay
Format: biochemical
study conditions: human plasmin 20 nM, 50 mM Tris-HCl pH 7.4, 150 mM NaCl, 37 °C, Spectrozyme PL
parameter: IC50 (µM)

INSERT INTO measurements (compound, measured_on, data_value) VALUES
  ('O=c1c(OS(=O)(=O)O)c(-c2ccc(OS(=O)(=O)O)c(OS(=O)(=O)O)c2)oc2cc(OS(=O)(=O)O)cc(OCc3cn(CCCCCCCCCn4c(-c5ccc(OS(=O)(=O)O)cc5)nc5ccccc5c4=O)nn3)c12 [compound 33]', 'human Lys-plasmin (Homo sapiens, UniProt P00747)', 128),
  ('O=c1c(OS(=O)(=O)O)c(-c2ccc(OS(=O)(=O)O)c(OS(=O)(=O)O)c2)oc2cc(OS(=O)(=O)O)cc(OCCCCCOc3cc(OS(=O)(=O)O)cc4oc(-c5ccc(OS(=O)(=O)O)c(OS(=O)(=O)O)c5)c(OS(=O)(=O)O)c(=O)c34)c12 [compound 53]', 'human Lys-plasmin (Homo sapiens, UniProt P00747)', 209),
  ('O=c1c(OS(=O)(=O)O)c(-c2ccc(OS(=O)(=O)O)c(OS(=O)(=O)O)c2)oc2cc(OS(=O)(=O)O)cc(OCc3cn(CCCCCCCCn4c(-c5ccc(OS(=O)(=O)O)cc5)nc5ccccc5c4=O)nn3)c12 [compound 32]', 'human Lys-plasmin (Homo sapiens, UniProt P00747)', 45),
  ('O=c1c2ccccc2nc(-c2ccc(OS(=O)(=O)O)cc2)n1CCCCCCCCn1cc(Cn2c(-c3ccc(OS(=O)(=O)O)cc3)nc3ccccc3c2=O)nn1 [compound 43]', 'human Lys-plasmin (Homo sapiens, UniProt P00747)', 183),
  ('O=c1c(OS(=O)(=O)O)c(-c2ccc(OS(=O)(=O)O)c(OS(=O)(=O)O)c2)oc2cc(OS(=O)(=O)O)cc(OCc3cn(CCCCCCCn4c(-c5ccc(OS(=O)(=O)O)cc5)nc5ccccc5c4=O)nn3)c12 [compound 31]', 'human Lys-plasmin (Homo sapiens, UniProt P00747)', 56),
  ('O=c1c2ccccc2nc(-c2ccc(OS(=O)(=O)O)cc2)n1CCCCCCCn1cc(Cn2c(-c3ccc(OS(=O)(=O)O)cc3)nc3ccccc3c2=O)nn1 [compound 42]', 'human Lys-plasmin (Homo sapiens, UniProt P00747)', 161),
  ('O=c1c(OS(=O)(=O)O)c(-c2ccc(OS(=O)(=O)O)c(OS(=O)(=O)O)c2)oc2cc(OS(=O)(=O)O)cc(OCc3cn(CCCCCCCCCCn4c(-c5ccc(OS(=O)(=O)O)cc5)nc5ccccc5c4=O)nn3)c12 [compound 34]', 'human Lys-plasmin (Homo sapiens, UniProt P00747)', 130);

* * *

measured on: human Lys-plasmin (Homo sapiens, UniProt P00747)
Construct: purchased Haematologic Technologies (Essex Junction, VT, USA)
test protocol: Direct inhibition of human Lys-plasmin, chromogenic substrate (Spectrozyme PL) hydrolysis assay
Assay type: biochemical
study conditions: logistic fit, pH 7.4, 37 °C
Collected HS (Hill slope) values appear next to each entry.
parameter: HS (Hill slope)

INSERT INTO measurements (smiles_representation, parameter, data_value) VALUES
  ('O=c1c2ccccc2nc(-c2ccc(OS(=O)(=O)O)cc2)n1CCCCCCCn1cc(Cn2c(-c3ccc(OS(=O)(=O)O)cc3)nc3ccccc3c2=O)nn1', 'HS (Hill slope)', 1.0),
  ('O=c1c2ccccc2nc(-c2ccc(OS(=O)(=O)O)cc2)n1CCCCCCCCn1cc(Cn2c(-c3ccc(OS(=O)(=O)O)cc3)nc3ccccc3c2=O)nn1', 'HS (Hill slope)', 1.0),
  ('O=c1c(OS(=O)(=O)O)c(-c2ccc(OS(=O)(=O)O)c(OS(=O)(=O)O)c2)oc2cc(OS(=O)(=O)O)cc(OCCOc3cc(OS(=O)(=O)O)cc4oc(-c5ccc(OS(=O)(=O)O)c(OS(=O)(=O)O)c5)c(OS(=O)(=O)O)c(=O)c34)c12', 'HS (Hill slope)', 1.4),
  ('O=c1c(OS(=O)(=O)O)c(-c2ccc(OS(=O)(=O)O)c(OS(=O)(=O)O)c2)oc2cc(OS(=O)(=O)O)cc(OCCCCOc3cc(OS(=O)(=O)O)cc4oc(-c5ccc(OS(=O)(=O)O)c(OS(=O)(=O)O)c5)c(OS(=O)(=O)O)c(=O)c34)c12', 'HS (Hill slope)', 1.0),
  ('O=c1c(OS(=O)(=O)O)c(-c2ccc(OS(=O)(=O)O)c(OS(=O)(=O)O)c2)oc2cc(OS(=O)(=O)O)cc(OCc3cn(CCCCCCCCCCn4c(-c5ccc(OS(=O)(=O)O)cc5)nc5ccccc5c4=O)nn3)c12', 'HS (Hill slope)', 3.9);

* * *

measured on: human Lys-plasmin (Homo sapiens, UniProt P00747)
Construct: purchased Haematologic Technologies (Essex Junction, VT, USA)
test protocol: Direct inhibition of human Lys-plasmin, chromogenic substrate (Spectrozyme PL) hydrolysis assay
Type: biochemical
study conditions: pH 7.4, logistic fit, pH 7.4, 37 °C; read-out: ΔY% (efficacy, YM − Y0)
Collected Emax values appear next to each entry.
parameter: Emax (%)

INSERT INTO measurements (smiles_representation, unit_descriptor, data_value) VALUES
  ('O=c1c2ccccc2nc(-c2ccc(OS(=O)(=O)O)cc2)n1Cc1cn(CCn2cc(Cn3c(-c4ccc(OS(=O)(=O)O)cc4)nc4ccccc4c3=O)nn2)nn1', '%', 54),
  ('O=c1c(OS(=O)(=O)O)c(-c2ccc(OS(=O)(=O)O)c(OS(=O)(=O)O)c2)oc2cc(OS(=O)(=O)O)cc(OCCCCOc3cc(OS(=O)(=O)O)cc4oc(-c5ccc(OS(=O)(=O)O)c(OS(=O)(=O)O)c5)c(OS(=O)(=O)O)c(=O)c34)c12', '%', 72),
  ('O=c1c(OS(=O)(=O)O)c(-c2ccc(OS(=O)(=O)O)c(OS(=O)(=O)O)c2)oc2cc(OS(=O)(=O)O)cc(OCCCCCOc3cc(OS(=O)(=O)O)cc4oc(-c5ccc(OS(=O)(=O)O)c(OS(=O)(=O)O)c5)c(OS(=O)(=O)O)c(=O)c34)c12', '%', 105),
  ('O=c1c(OS(=O)(=O)O)c(-c2ccc(OS(=O)(=O)O)c(OS(=O)(=O)O)c2)oc2cc(OS(=O)(=O)O)cc(OCCOc3cc(OS(=O)(=O)O)cc4oc(-c5ccc(OS(=O)(=O)O)c(OS(=O)(=O)O)c5)c(OS(=O)(=O)O)c(=O)c34)c12', '%', 38);

* * *

measured on: human Lys-plasmin (Homo sapiens, UniProt P00747)
Construct: purchased Haematologic Technologies (Essex Junction, VT, USA)
test protocol: Direct inhibition of human Lys-plasmin, chromogenic substrate (Spectrozyme PL) hydrolysis assay
Type: biochemical
study conditions: logistic fit, pH 7.4, 37 °C; read-out: ΔY% (efficacy, YM − Y0)
Collected Emax values appear next to each entry.
parameter: Emax (%)

INSERT INTO measurements (smiles_representation, data_value) VALUES
  ('O=c1c2ccccc2nc(-c2ccc(OS(=O)(=O)O)cc2)n1CCCCCCCn1cc(Cn2c(-c3ccc(OS(=O)(=O)O)cc3)nc3ccccc3c2=O)nn1', 92),
  ('O=c1c2ccccc2nc(-c2ccc(OS(=O)(=O)O)cc2)n1CCCCCCCCCCCCn1cc(Cn2c(-c3ccc(OS(=O)(=O)O)cc3)nc3ccccc3c2=O)nn1', 98),
  ('O=c1c2ccccc2nc(-c2ccc(OS(=O)(=O)O)cc2)n1CCCCCCCCCn1cc(Cn2c(-c3ccc(OS(=O)(=O)O)cc3)nc3ccccc3c2=O)nn1', 102),
  ('O=c1c2ccccc2nc(-c2ccc(OS(=O)(=O)O)cc2)n1CCCCCCCCCCn1cc(Cn2c(-c3ccc(OS(=O)(=O)O)cc3)nc3ccccc3c2=O)nn1', 94),
  ('O=c1c2ccccc2nc(-c2ccc(OS(=O)(=O)O)cc2)n1CCCCCCCCCCCn1cc(Cn2c(-c3ccc(OS(=O)(=O)O)cc3)nc3ccccc3c2=O)nn1', 95),
  ('O=c1c2ccccc2nc(-c2ccc(OS(=O)(=O)O)cc2)n1CCCCCCCCn1cc(Cn2c(-c3ccc(OS(=O)(=O)O)cc3)nc3ccccc3c2=O)nn1', 94);

Values compiled from paper PMC6272155.
